Origin of the recorded values: ChEMBL document CHEMBL1128486

Target Or Test System: Protein farnesyltransferase (Sus scrofa)
Measurement Description: Inhibition of pig brain farnesyl transferase
Measurement Parameters: read-out: I50
Value Type: IC50 (µM)

>  <Compound>
CC(C)=CCC/C(C)=C/CC/C(C)=C/CC(=O)N[C@@H](CP(=O)(O)O)C(=O)O

>  <IC50 / µM>
1.7

$$$$
>  <Compound>
CC(C)=CCC/C(C)=C/CC/C(C)=C/C(=O)N[C@H](CP(=O)(O)O)C(=O)O

>  <IC50 / µM>
0.5

$$$$

1. CC(C)=CCC/C(C)=C/CC/C(C)=C/CC(=O)N[C@H](CP(=O)(O)O)C(=O)O
2. CC(C)=CCC/C(C)=C/CCC(C)(C)CCNC(=O)C(CP(=O)(O)O)C(=O)O (centres undefined)
input: Identify the entry with the larger IC50. Options: 1 and 2 // return label of chosen record
output: 2
(2: 55 µM, 1: 0.05 µM)

I. CC(C)=CCC/C(C)=C/CC/C(C)=C/C(=O)N[C@@H](CP(=O)(O)O)C(=O)O
II. CC(C)=CCC/C(C)=C/CC/C(C)=C/C(=O)N[C@@H](CCC(=O)O)C(=O)O
III. CC(C)=CCC/C(C)=C/CC/C(C)=C/C(=O)N[C@H](CC(=O)O)C(=O)O
IV. CC(C)=CCC/C(C)=C/CC/C(C)=C/CNC(=O)CCC(=O)O
input: Order the records by IC50, with each subsequent value no larger than the one before. Please express your ranking as an ordered list of the labels.
output: IV, III, II, I
